All figures here come from patent US10246453B2.

Target: NaV1.6 (Homo sapiens (Human), UniProt Q9UQD0)
Assay: Sodium Influx Assay (Flux), NaV1.6
Conditions: read-out: Flux NaV1.6 IC50; Trex HEK293 cells, ANG2 dye; arithmetic mean
experimental endpoint: pIC50
# pIC50 = -log10(concentration in molar units)

> print(dat)
                                   compound  recorded.number
1  Cc1cc(C)cc(CN2CC[C@H](Oc3ccc(S(=O)(=O)Nc4ncns4)cc3Cl)C2)c1 [Example 99, 2,2,2-trifluoroacetate]             5.85
2  O=S(=O)(Nc1nccs1)c1ccc(OC2CCN(Cc3cccc(OC(F)F)c3)CC2)c(Cl)c1 [Example 5]             5.87
3  O=S(=O)(Nc1nccs1)c1cc(Cl)c(O[C@@H]2C[C@H]3CC[C@@H](C2)N3Cc2cccc(Cl)c2)cc1F [Example 18]             5.98

API: the following record is the query input.
Query: Give pIC50 (NaV1.6 (Homo sapiens (Human), UniProt Q9UQD0)) of the following compound: CN(c1cc(F)c(S(=O)(=O)Nc2cscn2)cc1Cl)[C@H]1CCN(Cc2cc(Cl)ccc2F)C1 [Example 195]
Response: 5.83

====

# Lookup of reported pIC50 keyed by entry
Molecular target: NaV1.1 (Homo sapiens (Human))
Assay: Sodium Influx Assay (Flux), NaV1.1
Type: cell-based
Details: Trex HEK293 cells, ANG2 dye; arithmetic mean
FYI, pIC50 means -log10 of a concentration in mol per litre.

Field: example entries. Status: answers known.
> print(dat)
                                   compound  recorded.number
1  Cc1cc(S(=O)(=O)Nc2cscn2)c(F)cc1N(C)[C@H]1CCN(Cc2csc(C(F)(F)F)n2)C1             5.30
2  CN(c1cc(F)c(S(=O)(=O)Nc2cscn2)cc1Cl)[C@H]1CCN(Cc2cc(Cl)ccc2F)C1             5.29
3  CN(c1cc(F)c(S(=O)(=O)Nc2cscn2)cc1Cl)[C@H]1CCN(Cc2cccc(N3CCC3)n2)C1 [Example 317, 2,2,2-trifluoroacetate]             5.00
4  CN(c1ccc(S(=O)(=O)Nc2nccs2)cc1Cl)C1(C)CCN(Cc2ccccc2)C1 (centres unmarked)             5.00

Query: What pIC50 value was documented for this compound, CC(c1ccccc1)N1CCC(Oc2cc(F)c(S(=O)(=O)Nc3nccs3)cc2Cl)CC1 (centres unmarked) ?
Response: 5.00

====

Target: NaV1.1 (Homo sapiens (Human), UniProt P35498)
Test: Sodium Influx Assay (Flux), NaV1.1
Assay type: cell-based
Settings: Trex HEK293 cells, ANG2 dye; arithmetic mean
experimental endpoint: IC50

> print(dat)
                                   compound  experimental.endpoint   result
1  C[C@H](c1cc(C2CC2)ccc1F)N1CCC(Oc2ccc(S(=O)(=O)Nc3cscn3)cc2Cl)CC1 (stereo in doubt) [Example 320]                   IC50  4.25 µM
2  O=S(=O)(Nc1nccs1)c1ccc(OC2CCN(Cc3ccccn3)CC2)c(Cl)c1 [Example 65]                   IC50  > 30 µM

Shifting focus to the compound that follows.
Query: I am curious: what IC50 value has been reported for Cc1cc(S(=O)(=O)Nc2cscn2)c(F)cc1N(C)[C@H]1CCN(Cc2cscn2)C1 [Example 140] ?
Response: > 30 µM
